Data origin, for the record: PubChem BioAssay (NCI)

Test system: CCRF-CEM leukemia
protocol_summary: NCI tumour cell line growth inhibition, 48 h
measure: TGI

## Task Which TGI reading was recorded for the compound CC1CN1c1c(C(=O)/C=C/c2ccccc2)c(-c2ccccc2)nn(C)c1=O (stereo not drawn) ?
## Result 37.9 µM

----------
System: SK-MEL-28 melanoma
protocol_summary: NCI tumour cell line growth inhibition, 48 h
measure: TGI

## Task Give the measured TGI of Cc1ccc(C2=Nc3ccccc3SC(c3cccc([N+](=O)[O-])c3)C2)cc1 (stereo not given) .
## Result > 100 µM

---
## Task Need TGI, item `CC(=O)c1c(C(F)(F)F)n([O-])c2ccc(C)cc2[n+]1=O`
## Result > 100 µM

## Task Fill in: TGI of `COc1ccc2oc(=N)c(C(=O)Nc3ccccn3)cc2c1` is ___
## Result > 100 µM

## Task Please look up its TGI: `COc1cc(/C=C(/C#N)C(N)=O)ccc1O`
## Result > 100 µM

## Task What measured TGI goes with `COc1ccc(C(Cl)=C(c2ccc(OCCN(C)C)cc2)c2ccc(OCCN(C)C)cc2)cc1` ?
## Result 3.11 µM
